# key: entry, value: EC50
Biological target: phosphorylation levels of ERK1/2 in AsPC-1 (homozygous KRAS-G12D) cells (Homo sapiens, UniProt P01116, G12D)
Sequence (P01116 1-186 G12D): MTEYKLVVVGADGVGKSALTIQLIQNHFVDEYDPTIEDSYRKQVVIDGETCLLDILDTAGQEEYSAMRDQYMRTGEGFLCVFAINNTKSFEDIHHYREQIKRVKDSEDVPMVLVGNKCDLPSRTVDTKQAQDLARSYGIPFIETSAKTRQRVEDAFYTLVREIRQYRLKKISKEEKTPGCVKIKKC
Test: Cellular phospho-ERK assay in AsPC-1 cells (Alpha Screen), assay medium without fetal bovine serum;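 also: signal taken as phospho-ERK over total ERK per well, both detected in one multiplex bead assay, EC50 from four-parameter logistic fit of dose-response curves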
Details: phospho-ERK AlphaScreen, 18 h
*1 amine or outer side, *2 acyl side, *3 side chain or, on linkers, in order; H or OH if unused. Where a SMILES comes first, the peptide text is derived from it. Bridges are numbered along the chain shown (N, C = ends). [ ]: non-standard residue; d: D form. Ala(pyrimidin-5-yl) = N[C@@H](Cc1cncnc1)C(=O)O; NMe3Pal(6-Me) = CN[C@@H](Cc1ccc(C)nc1)C(=O)O; X20 = CN([C@@H](Cc1cnco1)C(=O)[*:2])[*:1]; X3 = CN([C@@H](Cc1cncnc1)C(=O)[*:2])[*:1]; Ala(cPent) = N[C@@H](CC1CCCC1)C(=O)O; Phe(2-F) = N[C@@H](Cc1ccccc1F)C(=O)O; NMe3Pal = CN[C@@H](Cc1cccnc1)C(=O)O; X1 = O=C(C12CC(CN[*:1])(C1)C2)[*:2]; X41 = COCCC[C@H](N[*:1])C(=O)[*:2]; NMeF = CN[C@@H](Cc1ccccc1)C(=O)O; PhLac = O=C(O)[C@@H](O)Cc1ccccc1; 3Pal = N[C@@H](Cc1cccnc1)C(=O)O; Ahp(2) = CCCCC[C@H](N)C(=O)O; Cba = N[C@@H](CC1CCC1)C(=O)O; hLeu = CC(C)CC[C@H](N)C(=O)O; αMeC = C[C@](N)(CS)C(=O)O; NMeA = CN[C@@H](C)C(=O)O; Nle = CCCC[C@H](N)C(=O)O

Some compounds with known EC50 results, for comparison:
{"Compound": "CCCCC[C@@H]1NC(=O)[C@H](Cc2ccc(OC)cc2)NC(=O)[C@H](CC2CCC2)NC(=O)[C@H](Cc2ccc(N3CCC[C@H]3CN)cc2)NC(=O)[C@H](CCCNC(=N)N)NC(=O)[C@H](Cc2ccccc2)NC(=O)CSC[C@@](C)(C(N)=O)NC(=O)[C@H](Cc2ccccc2)N(C)C1=O", "Result": "> 50.8 µM"}
{"Compound": "CCCCC[C@@H]1NC(=O)[C@H](Cc2ccc(OC)cc2)NC(=O)[C@H](CC2CCC2)NC(=O)[C@H](Cc2cccnc2)NC(=O)[C@H](CCCNC(=N)N)NC(=O)[C@H](Cc2ccccc2)NC(=O)CSC[C@@](C)(C(N)=O)NC(=O)[C@H](Cc2ccc(C)nc2)N(C)C1=O [compound 377] ({CH2CO}-FR[3Pal][Cba]Y(Me)[Ahp(2)][NMe3Pal(6-Me)][αMeC]-NH2; thioether N-8)", "Result": "> 50.8 µM"}
{"Compound": "CCCC[C@@H]1NC(=O)[C@H](Cc2cncnc2)NC(=O)[C@H](C)N(C)C(=O)[C@H](Cc2ccccc2)OC(=O)C23CC(CNC(=O)[C@H](Cc4ccccc4)N(C)C(=O)[C@H](CCCC)NC(=O)[C@H](Cc4ccccc4F)NC1=O)(C2)C3 [compound 230] (cyclo([NMeA][Ala(pyrimidin-5-yl)][Nle][Phe(2-F)][Nle][NMeF][X1][PhLac]))", "Result": "0.59 µM"}
{"Compound": "CCCC[C@@H]1NC(=O)[C@H](Cc2cccnc2)NC(=O)[C@H](C)N(C)C(=O)[C@H](Cc2cccnc2)NC(=O)C23CC(CNC(=O)[C@H](Cc4cccnc4)N(C)C(=O)[C@H](CCCC)NC(=O)[C@H](Cc4ccccc4F)NC1=O)(C2)C3 [compound 163] (cyclo([3Pal][NMeA][3Pal][Nle][Phe(2-F)][Nle][NMe3Pal][X1]))", "Result": "> 50.8 µM"}
{"Compound": "CC(C)CC[C@@H]1NC(=O)[C@H](Cc2ccccc2F)NC(=O)[C@H](CC2CCCC2)NC(=O)[C@H](Cc2cncnc2)NC(=O)[C@H](C)N(C)C(=O)[C@H](Cc2ccccc2)OC(=O)C23CC(CNC(=O)[C@H](Cc4cncnc4)N(C)C1=O)(C2)C3 [compound 335] (cyclo([Ala(cPent)][Phe(2-F)][hLeu][X3][X1][PhLac][NMeA][Ala(pyrimidin-5-yl)]))", "Result": "5.27 µM"}

In plain terms, CCCC[C@@H]1NC(=O)[C@H](CCCOC)NC(=O)[C@H](CC2CCC2)NC(=O)[C@H](Cc2cccnc2)NC(=O)[C@H](CCCNC(=N)N)NC(=O)[C@H](Cc2ccccc2)NC(=O)CSC[C@@](C)(C(N)=O)NC(=O)[C@H](Cc2ccccc2)N(C)C1=O [compound 55] ({CH2CO}-FR[3Pal][Cba][X41][Nle][NMeF][αMeC]-NH2; thioether N-8) has a documented EC50 of > 50.8 µM

In plain terms, CCCC[C@@H]1NC(=O)[C@H](Cc2cccnc2)NC(=O)[C@H](C)N(C)C(=O)[C@H](Cc2ccccc2)OC(=O)C23CC(CNC(=O)[C@H](Cc4cccnc4)N(C)C(=O)[C@H](CCC(C)C)NC(=O)[C@H](Cc4ccccc4F)NC1=O)(C2)C3 [compound 124] (cyclo([3Pal][Nle][Phe(2-F)][hLeu][NMe3Pal][X1][PhLac][NMeA])) has a documented EC50 of 4.65 µM

In plain terms, CCCC[C@@H]1NC(=O)[C@H](Cc2ccc(C(F)(F)F)nc2)NC(=O)[C@H](CCCn2ccnc2)N(C)C(=O)[C@H](Cc2ccccc2)OC(=O)C23CC(CNC(=O)[C@H](Cc4ccccc4)N(C)C(=O)[C@H](CCCC)NC(=O)[C@H](Cc4ccccc4F)NC1=O)(C2)C3 (single isomer, unassigned) [compound 218] has a documented EC50 of > 50.8 µM

In plain terms, CCCCC[C@@H]1NC(=O)[C@H](Cc2ccc(OC)cc2)NC(=O)[C@H](CC2CCC2)NC(=O)[C@H](Cc2cccnc2)NC(=O)[C@H](CCCNC(=N)N)NC(=O)[C@H](Cc2ccccc2)NC(=O)CSC[C@@](C)(C(N)=O)NC(=O)[C@H](Cc2cnco2)N(C)C1=O [compound 379] ({CH2CO}-FR[3Pal][Cba]Y(Me)[Ahp(2)][X20][αMeC]-NH2; thioether N-8) has a documented EC50 of > 50.8 µM

In plain terms, CCCC[C@@H]1NC(=O)[C@H](Cc2ccccc2F)NC(=O)[C@H](CC(C)C)NC(=O)[C@H](Cc2cncnc2)NC(=O)[C@H](C)N(C)C(=O)[C@H](Cc2ccccc2)OC(=O)C23CC(CNC(=O)[C@H](Cc4cccnc4)N(C)C1=O)(C2)C3 [compound 129] (cyclo([PhLac][NMeA][Ala(pyrimidin-5-yl)]L[Phe(2-F)][Nle][NMe3Pal][X1])) has a documented EC50 of > 50.8 µM

In plain terms, CCCC[C@@H]1NC(=O)[C@H](Cc2cccnc2)NC(=O)[C@H](C)N(C)C(=O)[C@H](Cc2ccccc2)NC(=O)CSC[C@@](C)(C(N)=O)NC(=O)[C@H](Cc2ccccc2)N(C)C(=O)[C@H](CCCC)NC(=O)[C@H](Cc2ccccc2F)NC1=O [compound 159] ({CH2CO}-F[NMeA][3Pal][Nle][Phe(2-F)][Nle][NMeF][αMeC]-NH2; thioether N-8) has a documented EC50 of 21 µM
